- Tested system: UniProt:P40145
- Measurement description: Inhibition of human AC8 expressed in HEK293 cells assessed as decrease in A23187-stimulated cAMP accumulation at 30 uM preincubated for 30 mins followed by A23187 stimulation and measured after 1 hr by fluorescence assay relative to control
- Type: cell-based
Measured quantity: inhibition (%)

INSERT INTO assay_data (substance_smiles, measured_quantity, units_text, obs_value) VALUES
  ('COc1cccc(C(=O)Nc2nnc(-c3ccc4c(c3)OCCO4)o2)c1', 'inhibition', '%', 18),
  ('O=C(Nc1nnc(-c2ccc(F)cc2)o1)c1ccc(Cl)cc1', 'inhibition', '%', 11),
  ('O=C(Nc1nnc(-c2ccc(F)cc2)o1)c1ccccc1', 'inhibition', '%', 8),
  ('O=C(Nc1nnc(-c2cccs2)o1)c1ccc(Br)cc1', 'inhibition', '%', 41),
  ('COc1ccc(C(=O)Nc2nnc(-c3cccs3)o2)cc1', 'inhibition', '%', 10),
  ('Cc1ccc(C(=O)Nc2nnc(-c3ccc(F)cc3)o2)cc1C', 'inhibition', '%', 42),
  ('O=C(Nc1nnc(C2CCCCC2)o1)c1ccccc1', 'inhibition', '%', 2);

###

- Tested system: Adenylate cyclase type 8 (Homo sapiens)
- Sequence (P40145 whole entry): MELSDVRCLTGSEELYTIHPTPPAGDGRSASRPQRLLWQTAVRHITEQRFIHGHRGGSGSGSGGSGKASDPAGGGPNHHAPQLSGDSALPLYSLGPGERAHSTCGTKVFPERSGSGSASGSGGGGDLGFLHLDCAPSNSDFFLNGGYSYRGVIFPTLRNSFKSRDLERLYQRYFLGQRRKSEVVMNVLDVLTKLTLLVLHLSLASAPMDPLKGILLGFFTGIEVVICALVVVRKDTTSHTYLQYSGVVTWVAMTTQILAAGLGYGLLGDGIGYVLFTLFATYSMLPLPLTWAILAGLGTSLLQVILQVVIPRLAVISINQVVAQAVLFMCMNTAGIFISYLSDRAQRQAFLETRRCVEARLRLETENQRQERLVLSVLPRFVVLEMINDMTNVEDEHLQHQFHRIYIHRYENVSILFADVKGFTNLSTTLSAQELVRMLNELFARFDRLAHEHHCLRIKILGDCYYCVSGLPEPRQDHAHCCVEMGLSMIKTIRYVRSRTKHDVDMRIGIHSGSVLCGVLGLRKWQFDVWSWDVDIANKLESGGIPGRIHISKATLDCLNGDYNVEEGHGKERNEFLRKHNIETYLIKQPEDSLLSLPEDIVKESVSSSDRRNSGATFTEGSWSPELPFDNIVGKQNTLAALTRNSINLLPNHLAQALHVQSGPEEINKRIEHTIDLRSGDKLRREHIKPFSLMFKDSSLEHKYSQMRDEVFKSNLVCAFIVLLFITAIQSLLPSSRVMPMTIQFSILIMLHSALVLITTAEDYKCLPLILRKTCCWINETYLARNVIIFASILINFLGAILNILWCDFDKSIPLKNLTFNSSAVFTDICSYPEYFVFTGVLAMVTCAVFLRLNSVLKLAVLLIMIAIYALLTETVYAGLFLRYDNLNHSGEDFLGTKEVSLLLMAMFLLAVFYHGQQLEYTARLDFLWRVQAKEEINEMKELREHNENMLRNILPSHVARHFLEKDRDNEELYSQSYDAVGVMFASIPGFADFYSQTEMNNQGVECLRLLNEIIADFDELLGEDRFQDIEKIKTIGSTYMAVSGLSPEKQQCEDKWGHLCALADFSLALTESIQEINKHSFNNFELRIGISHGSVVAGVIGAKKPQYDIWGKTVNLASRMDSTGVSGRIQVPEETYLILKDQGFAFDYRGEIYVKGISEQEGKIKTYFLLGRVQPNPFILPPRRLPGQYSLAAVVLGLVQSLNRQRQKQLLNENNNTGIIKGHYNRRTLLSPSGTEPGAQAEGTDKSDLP
- Measurement description: Inhibition of human AC8 expressed in HEK293 cells assessed as decrease in A23187-stimulated cAMP accumulation at 30 uM preincubated for 30 mins followed by A23187 stimulation and measured after 1 hr by fluorescence assay relative to control
- Format: cell-based
So basically, the class depends on measured inhibition, and the ranges are low band = under 20%, middle band = from 20% up to 30%, high band = 30% and over

INSERT INTO measurements (substance_smiles, tested_system, label_value) VALUES
  ('O=C(Nc1nnc(C2CCCCC2)o1)c1cccc(F)c1', 'Adenylate cyclase type 8 (Homo sapiens)', 'low band'),
  ('Cc1ccc(C(=O)Nc2nnc(-c3ccc(F)cc3)o2)cc1', 'Adenylate cyclase type 8 (Homo sapiens)', 'high band'),
  ('Cc1ccc(C(=O)Nc2nnc(C3CCCCC3)o2)cc1', 'Adenylate cyclase type 8 (Homo sapiens)', 'low band'),
  ('CSc1cccc(C(=O)Nc2nnc(-c3cccs3)o2)c1', 'Adenylate cyclase type 8 (Homo sapiens)', 'high band'),
  ('O=C(Nc1nnc(-c2ccccc2)o1)c1cccc(C(F)(F)F)c1', 'Adenylate cyclase type 8 (Homo sapiens)', 'middle band'),
  ('Cc1ccc(C(=O)Nc2nnc(-c3ccc4c(c3)OCCO4)o2)cc1', 'Adenylate cyclase type 8 (Homo sapiens)', 'middle band'),
  ('CC(C)Oc1ccc(C(=O)Nc2nnc(-c3ccc4c(c3)OCCO4)o2)cc1', 'Adenylate cyclase type 8 (Homo sapiens)', 'high band'),
  ('O=C(Nc1nnc(-c2ccc3c(c2)OCCO3)o1)c1ccccc1', 'Adenylate cyclase type 8 (Homo sapiens)', 'middle band'),
  ('O=C(Nc1nnc(-c2ccc(F)cc2)o1)c1ccc(S(=O)(=O)N2CCCCC2)cc1', 'Adenylate cyclase type 8 (Homo sapiens)', 'high band'),
  ('CC(C)Oc1ccc(C(=O)Nc2nnc(-c3ccco3)o2)cc1', 'Adenylate cyclase type 8 (Homo sapiens)', 'middle band'),
  ('COc1ccc(C(=O)Nc2nnc(C3CCCCC3)o2)cc1', 'Adenylate cyclase type 8 (Homo sapiens)', 'low band');

###

- Tested system: Adenylate cyclase type 5 (Homo sapiens)
- Measurement description: Inhibition of human AC5 expressed in HEK293 cells assessed as forskolin-stimulated cAMP accumulation at 30 uM preincubated for 30 mins followed by forskolin stimulation and measured after 1 hr by fluorescence assay relative to control
- Type: cell-based
- Parameters: scale not given: the % may be the effect or the level left
Measured quantity: Activity (%)

INSERT INTO results (substance_smiles, obs_value) VALUES
  ('O=C(Nc1nnc(-c2ccc3c(c2)OCCO3)o1)c1ccc(Br)cc1', 159),
  ('O=C(Nc1nnc(-c2ccc3c(c2)CCCC3)o1)c1ccc(Br)cc1', 215),
  ('Cc1ccc(C(=O)Nc2nnc(-c3ccc(F)cc3)o2)cc1', 170),
  ('Cc1ccc(C(=O)Nc2nnc(-c3ccc4c(c3)CCCC4)o2)cc1', 139),
  ('Cc1ccc(C(=O)Nc2nnc(-c3ccc4c(c3)OCCO4)o2)cc1', 194),
  ('O=C(Nc1nnc(-c2ccc3c(c2)CCCC3)o1)c1cccc(C(F)(F)F)c1', 189);
